- test.system: Adrenergic alpha1A (Homo sapiens, UniProt P35348)
- Sequence (P35348 whole entry): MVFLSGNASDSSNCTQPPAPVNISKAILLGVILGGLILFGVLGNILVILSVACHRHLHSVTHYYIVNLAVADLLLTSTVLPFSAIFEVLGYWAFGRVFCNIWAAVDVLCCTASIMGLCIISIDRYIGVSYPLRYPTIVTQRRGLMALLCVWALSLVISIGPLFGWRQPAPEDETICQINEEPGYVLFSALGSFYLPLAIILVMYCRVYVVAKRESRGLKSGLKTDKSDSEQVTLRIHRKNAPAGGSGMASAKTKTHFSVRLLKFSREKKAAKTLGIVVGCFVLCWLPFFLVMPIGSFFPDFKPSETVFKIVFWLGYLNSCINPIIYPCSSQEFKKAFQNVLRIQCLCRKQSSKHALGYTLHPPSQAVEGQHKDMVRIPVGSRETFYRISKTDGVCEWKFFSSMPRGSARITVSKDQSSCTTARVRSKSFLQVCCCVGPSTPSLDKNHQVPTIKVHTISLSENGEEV
Where a name gives a salt, the structure may show the parent alone.
value.type: pKi
When answering, recall that pKi equals minus log10 of the concentration in mol/L, and write that number alone.

Recorded pKi (compound Cc1ccc2c(c1)Oc1sc(C3CC3)cc1C(N1CCN(CC(C)(C)C(=O)O)CC1)=N2 [Example 2, dihydrochloride] ): 5.34

* * *

- test.system: 5-HT6 (Homo sapiens)
- Sequence (P50406 whole entry, species assumed): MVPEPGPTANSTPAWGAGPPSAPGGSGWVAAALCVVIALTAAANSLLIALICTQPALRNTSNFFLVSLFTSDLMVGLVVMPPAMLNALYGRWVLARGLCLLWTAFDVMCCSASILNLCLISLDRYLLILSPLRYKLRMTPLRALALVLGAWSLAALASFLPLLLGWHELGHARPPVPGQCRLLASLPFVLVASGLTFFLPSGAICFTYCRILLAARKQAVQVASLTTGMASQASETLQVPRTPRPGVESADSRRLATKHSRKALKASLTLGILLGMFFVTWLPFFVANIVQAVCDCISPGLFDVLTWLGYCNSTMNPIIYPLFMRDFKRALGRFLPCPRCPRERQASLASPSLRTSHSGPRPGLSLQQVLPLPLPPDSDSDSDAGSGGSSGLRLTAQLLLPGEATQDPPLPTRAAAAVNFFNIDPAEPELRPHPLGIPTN
Where a name gives a salt, the structure may show the parent alone.
value.type: Ki

Tested system 5-HT6 (Homo sapiens); Ki recorded for Cc1ccc2c(c1)Oc1sc(C3CC3)cc1C(N1CCN(CC(C)(C)C(=O)O)CC1)=N2 [Example 2, dihydrochloride] was > 5.83 µM

* * *

Target chain: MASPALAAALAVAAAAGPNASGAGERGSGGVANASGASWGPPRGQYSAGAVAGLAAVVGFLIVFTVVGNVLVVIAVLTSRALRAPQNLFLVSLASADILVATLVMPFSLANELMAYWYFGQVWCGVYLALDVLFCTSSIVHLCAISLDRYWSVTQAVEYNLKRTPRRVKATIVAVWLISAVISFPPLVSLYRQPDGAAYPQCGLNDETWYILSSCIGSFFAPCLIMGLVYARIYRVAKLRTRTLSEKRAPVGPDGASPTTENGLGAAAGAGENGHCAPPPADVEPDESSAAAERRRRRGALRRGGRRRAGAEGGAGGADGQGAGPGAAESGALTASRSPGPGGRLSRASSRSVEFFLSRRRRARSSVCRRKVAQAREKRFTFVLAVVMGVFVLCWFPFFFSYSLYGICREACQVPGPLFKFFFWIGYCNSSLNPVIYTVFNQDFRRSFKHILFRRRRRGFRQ
Where a name gives a salt, the structure may show the parent alone.
value.type: pKi
Conceptually, pKi converts a concentration in mol/L into minus its log10.

Query Cc1ccc2c(c1)Oc1sc(C3CC3)cc1C(N1CCN(CC(C)(C)C(=O)O)CC1)=N2 [Example 2, dihydrochloride] yields pKi of 5.86

* * *

- test.system: Dopamine Transporter (Homo sapiens)
- Sequence (Q01959 whole entry): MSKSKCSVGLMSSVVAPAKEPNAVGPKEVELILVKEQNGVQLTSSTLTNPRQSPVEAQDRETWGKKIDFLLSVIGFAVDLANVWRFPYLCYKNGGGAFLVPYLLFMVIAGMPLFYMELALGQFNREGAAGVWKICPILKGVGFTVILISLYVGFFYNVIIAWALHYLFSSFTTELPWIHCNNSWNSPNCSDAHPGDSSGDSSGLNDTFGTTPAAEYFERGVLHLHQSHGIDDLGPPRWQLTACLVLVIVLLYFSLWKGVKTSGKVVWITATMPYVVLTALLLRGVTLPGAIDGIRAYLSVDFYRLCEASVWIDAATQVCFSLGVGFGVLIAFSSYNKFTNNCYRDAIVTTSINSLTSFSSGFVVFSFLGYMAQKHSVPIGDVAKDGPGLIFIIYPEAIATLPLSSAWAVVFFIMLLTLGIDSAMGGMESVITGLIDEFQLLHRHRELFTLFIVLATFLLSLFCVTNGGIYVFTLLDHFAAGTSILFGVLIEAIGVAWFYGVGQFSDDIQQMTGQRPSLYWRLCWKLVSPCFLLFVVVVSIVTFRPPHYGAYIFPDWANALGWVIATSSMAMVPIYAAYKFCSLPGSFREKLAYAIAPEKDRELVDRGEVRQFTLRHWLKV
Counter-ions that a name gives are not always drawn.
value.type: Ki

Entry under test: Cc1ccc2c(c1)Oc1sc(C3CC3)cc1C(N1CCN(CC(C)(C)C(=O)O)CC1)=N2 [Example 2, dihydrochloride] . Its Ki was > 867 nM

* * *

- test.system: recombinant H1 receptor (human) (Homo sapiens, UniProt P35367)
- Sequence (P35367 whole entry): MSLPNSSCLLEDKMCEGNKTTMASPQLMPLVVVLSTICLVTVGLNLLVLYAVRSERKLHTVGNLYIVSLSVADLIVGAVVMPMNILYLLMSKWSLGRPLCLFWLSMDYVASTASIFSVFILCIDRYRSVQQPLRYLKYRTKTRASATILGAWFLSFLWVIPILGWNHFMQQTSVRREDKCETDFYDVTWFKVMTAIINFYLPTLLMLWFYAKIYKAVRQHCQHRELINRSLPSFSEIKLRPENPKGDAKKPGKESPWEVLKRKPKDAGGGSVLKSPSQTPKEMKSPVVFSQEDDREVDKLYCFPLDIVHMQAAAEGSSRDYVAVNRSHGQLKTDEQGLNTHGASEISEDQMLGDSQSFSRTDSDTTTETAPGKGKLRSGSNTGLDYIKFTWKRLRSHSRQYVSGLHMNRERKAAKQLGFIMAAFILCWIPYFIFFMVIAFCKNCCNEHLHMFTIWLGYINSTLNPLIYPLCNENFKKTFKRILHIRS
- assay: H1 competition binding assay ([3H]-Pyrilamine, SPA)
Counter-ions that a name gives are not always drawn.
value.type: pKi
For clarity, pKi is expressed as the negative log10 of concentration in mol/L.

What the record says about Cc1ccc2c(c1)Oc1sc(C3CC3)cc1C(N1CCN(CC(C)(C)C(=O)O)CC1)=N2 [Example 2, dihydrochloride] : pKi is 7.36

* * *

- test.system: 5-HT2B (Homo sapiens)
- Sequence (P41595 whole entry, species assumed): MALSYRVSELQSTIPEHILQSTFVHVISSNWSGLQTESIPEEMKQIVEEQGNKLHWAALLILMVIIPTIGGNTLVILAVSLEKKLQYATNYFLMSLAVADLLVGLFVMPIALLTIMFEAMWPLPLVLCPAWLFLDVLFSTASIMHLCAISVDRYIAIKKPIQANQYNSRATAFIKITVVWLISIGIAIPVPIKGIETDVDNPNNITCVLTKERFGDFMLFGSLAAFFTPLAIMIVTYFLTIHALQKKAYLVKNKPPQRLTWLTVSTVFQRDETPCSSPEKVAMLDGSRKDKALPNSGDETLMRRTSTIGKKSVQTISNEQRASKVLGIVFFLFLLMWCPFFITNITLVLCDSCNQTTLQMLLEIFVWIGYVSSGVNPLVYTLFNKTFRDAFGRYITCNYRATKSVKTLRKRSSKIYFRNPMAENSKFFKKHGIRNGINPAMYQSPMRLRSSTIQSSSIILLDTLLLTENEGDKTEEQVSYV
- assay: 5-HT2B agonist functional activity
- settings: agonist mode
Counter-ions that a name gives are not always drawn.
value.type: EC50

Memo: Cc1ccc2c(c1)Oc1sc(C3CC3)cc1C(N1CCN(CC(C)(C)C(=O)O)CC1)=N2 [Example 2, dihydrochloride] , reported EC50: > 10 µM

* * *

- test.system: recombinant 5-HT2A receptor (human) (Homo sapiens, UniProt P28223)
- Sequence (P28223 whole entry): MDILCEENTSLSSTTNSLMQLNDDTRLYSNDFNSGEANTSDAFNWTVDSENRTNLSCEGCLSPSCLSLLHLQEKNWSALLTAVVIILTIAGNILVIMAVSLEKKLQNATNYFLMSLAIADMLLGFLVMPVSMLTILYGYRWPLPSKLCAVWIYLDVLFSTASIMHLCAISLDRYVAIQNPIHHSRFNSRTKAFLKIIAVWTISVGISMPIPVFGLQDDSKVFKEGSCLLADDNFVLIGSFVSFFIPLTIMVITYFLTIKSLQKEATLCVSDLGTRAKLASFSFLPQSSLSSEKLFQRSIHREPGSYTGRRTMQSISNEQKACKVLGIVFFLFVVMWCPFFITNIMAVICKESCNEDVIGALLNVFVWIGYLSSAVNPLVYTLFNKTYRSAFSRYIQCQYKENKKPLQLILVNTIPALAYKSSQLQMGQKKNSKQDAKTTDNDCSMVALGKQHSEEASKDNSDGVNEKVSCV
- assay: 5-HT2A competition binding assay ([3H]-Ketanserin, SPA)
Structures can show the parent of a compound that is named as a salt.
value.type: pKi
The scale used: pKi is minus the common logarithm of the concentration in molar units.

Lookup result for Cc1ccc2c(c1)Oc1sc(C3CC3)cc1C(N1CCN(CC(C)(C)C(=O)O)CC1)=N2 [Example 2, dihydrochloride] ; measured pKi: 7.99

* * *

Protein target, amino acids: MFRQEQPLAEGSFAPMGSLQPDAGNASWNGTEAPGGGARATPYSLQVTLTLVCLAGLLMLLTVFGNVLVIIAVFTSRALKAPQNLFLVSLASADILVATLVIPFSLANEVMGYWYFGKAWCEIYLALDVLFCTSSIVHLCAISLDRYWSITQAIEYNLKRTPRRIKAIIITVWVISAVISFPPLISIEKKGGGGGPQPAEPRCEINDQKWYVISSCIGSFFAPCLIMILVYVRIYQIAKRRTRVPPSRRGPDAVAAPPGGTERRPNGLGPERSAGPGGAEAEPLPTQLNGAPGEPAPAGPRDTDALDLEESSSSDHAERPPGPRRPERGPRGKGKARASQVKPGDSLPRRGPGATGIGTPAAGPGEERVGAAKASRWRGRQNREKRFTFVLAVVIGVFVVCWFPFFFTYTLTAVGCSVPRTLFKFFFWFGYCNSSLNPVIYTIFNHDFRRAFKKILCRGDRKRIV
Where a name gives a salt, the structure may show the parent alone.
value.type: Ki (µM)
Express the result in µM but write the number alone.

In plain terms, Cc1ccc2c(c1)Oc1sc(C3CC3)cc1C(N1CCN(CC(C)(C)C(=O)O)CC1)=N2 [Example 2, dihydrochloride] has a documented Ki of 5.92

* * *

- test.system: 5-HT2B (Homo sapiens)
Counter-ions that a name gives are not always drawn.
value.type: pKi
# log scale: pKi equals minus log10 of the concentration in mol/L

Summary line: Cc1ccc2c(c1)Oc1sc(C3CC3)cc1C(N1CCN(CC(C)(C)C(=O)O)CC1)=N2 [Example 2, dihydrochloride] , 5-HT2B (Homo sapiens), reported pKi = 6.93

* * *

- assay: Plasma clearance
- Assay type: in vivo
- settings: dog, 1 mg/kg, male Beagle dogs, intravenous, 1 mL/kg of 1.0 mg/mL (free base equivalents)
Structures can show the parent of a compound that is named as a salt.
value.type: clearance (mL/min/kg)
Field format: number, assumed mL/min/kg, no unit text.

Note to self: clearance recorded for Cc1ccc2c(c1)Oc1sc(C3CC3)cc1C(N1CCN(CC(C)(C)C(=O)O)CC1)=N2 [Example 2, dihydrochloride] was 6.06

* * *

- test.system: UniProtKB P35462
- Sequence (P35462 whole entry): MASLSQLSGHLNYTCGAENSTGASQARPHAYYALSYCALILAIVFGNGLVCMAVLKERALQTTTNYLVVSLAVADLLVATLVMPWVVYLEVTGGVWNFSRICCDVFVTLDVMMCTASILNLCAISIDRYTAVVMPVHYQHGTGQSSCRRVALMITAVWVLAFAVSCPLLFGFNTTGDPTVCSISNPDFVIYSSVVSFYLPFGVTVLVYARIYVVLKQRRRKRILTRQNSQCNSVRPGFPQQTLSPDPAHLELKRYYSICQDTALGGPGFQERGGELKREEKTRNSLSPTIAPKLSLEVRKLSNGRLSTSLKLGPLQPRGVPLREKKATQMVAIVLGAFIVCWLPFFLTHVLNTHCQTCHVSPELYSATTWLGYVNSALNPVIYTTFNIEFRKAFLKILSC
Counter-ions that a name gives are not always drawn.
value.type: Ki

Here Cc1ccc2c(c1)Oc1sc(C3CC3)cc1C(N1CCN(CC(C)(C)C(=O)O)CC1)=N2 [Example 2, dihydrochloride] was tested on UniProtKB P35462, and its Ki came to > 6.28 µM

* * *

- test.system: Norepinephrine Transport (Homo sapiens, UniProt P23975)
- Sequence (P23975 whole entry): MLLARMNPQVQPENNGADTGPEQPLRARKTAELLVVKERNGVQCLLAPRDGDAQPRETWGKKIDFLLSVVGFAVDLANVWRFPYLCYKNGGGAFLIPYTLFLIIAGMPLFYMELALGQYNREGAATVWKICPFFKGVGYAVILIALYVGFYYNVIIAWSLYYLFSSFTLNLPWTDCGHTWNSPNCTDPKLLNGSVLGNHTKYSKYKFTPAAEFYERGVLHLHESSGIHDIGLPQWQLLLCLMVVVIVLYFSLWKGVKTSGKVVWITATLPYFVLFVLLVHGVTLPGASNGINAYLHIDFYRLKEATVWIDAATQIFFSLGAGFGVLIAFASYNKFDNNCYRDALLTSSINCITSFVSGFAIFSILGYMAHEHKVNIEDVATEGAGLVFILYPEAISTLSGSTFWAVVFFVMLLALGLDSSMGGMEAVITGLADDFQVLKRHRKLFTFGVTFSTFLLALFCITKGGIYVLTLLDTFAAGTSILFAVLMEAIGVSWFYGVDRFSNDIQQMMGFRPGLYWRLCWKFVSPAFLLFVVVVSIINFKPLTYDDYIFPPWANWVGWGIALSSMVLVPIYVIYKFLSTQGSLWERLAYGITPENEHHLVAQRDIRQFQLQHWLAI
Structures can show the parent of a compound that is named as a salt.
value.type: Ki

Here Cc1ccc2c(c1)Oc1sc(C3CC3)cc1C(N1CCN(CC(C)(C)C(=O)O)CC1)=N2 [Example 2, dihydrochloride] was tested on Norepinephrine Transport (Homo sapiens, UniProt P23975), and its Ki came to > 671 nM

* * *

- test.system: Dopamine D1 (Homo sapiens, UniProt P21728)
- Sequence (P21728 whole entry): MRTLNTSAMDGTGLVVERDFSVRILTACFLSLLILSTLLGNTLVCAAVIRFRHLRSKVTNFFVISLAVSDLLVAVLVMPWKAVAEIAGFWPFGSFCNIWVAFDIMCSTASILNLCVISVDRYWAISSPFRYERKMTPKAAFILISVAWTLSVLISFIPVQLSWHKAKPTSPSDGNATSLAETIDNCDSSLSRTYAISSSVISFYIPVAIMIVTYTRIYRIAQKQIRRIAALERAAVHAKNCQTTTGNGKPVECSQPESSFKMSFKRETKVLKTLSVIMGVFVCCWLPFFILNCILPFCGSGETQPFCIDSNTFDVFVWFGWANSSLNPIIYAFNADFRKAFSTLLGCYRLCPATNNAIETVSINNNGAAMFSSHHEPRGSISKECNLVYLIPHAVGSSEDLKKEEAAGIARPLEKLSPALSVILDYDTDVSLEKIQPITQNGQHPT
- assay: Dopamine D1 binding
Structures can show the parent of a compound that is named as a salt.
value.type: pKi
Please express pKi as -log10 of the molar concentration.

pKi recorded for this compound, Cc1ccc2c(c1)Oc1sc(C3CC3)cc1C(N1CCN(CC(C)(C)C(=O)O)CC1)=N2 [Example 2, dihydrochloride] , is 6.00
